- System: CCRF-CEM leukemia
- assay: NCI-60 one-dose screen, 48 h
- run.parameters: 10 µM unless noted
The panel holds about 83,000 compounds, 20% with a hit somewhere; the sample as a whole holds those more often. The source made the active and inactive calls. The calls were made as follows: active = growth percent below 10; inactive = the rest.
Please state which outcome applies, choosing from active, inactive

Study these solved cases before continuing.
1. O=c1oc2ccc(Cl)cc2c(=O)n1-c1ccc(Cl)cc1F ... active
2. COc1cc(/C=C2\CN(C)C/C(=C\c3cc(CN4CCOCC4)c(O)c(OC)c3)C2=O)cc(CN2CCOCC2)c1O ... inactive
3. Nc1cccc(Nc2cc(S(=O)(=O)O)c(N)c3c2C(=O)c2ccccc2C3=O)c1 ... inactive
4. Nc1nc(N)c2c(n1)NC1(C=C(O)c3ccccc31)C1=C(N2)c2ccccc2C1=O (centres undefined) ... inactive
5. O=c1oc2ccc(I)cc2c(=O)n1-c1ccc(Cl)cc1F ... active

(Q) Answer briefly: the call reported for CCOC(=O)C1(C(=O)OCC)N=C(c2ccccc2)C=C1c1ccccc1 in this assay.
(A) inactive

(Q) Answer briefly: the call reported for O=C1c2cc(Br)ccc2Oc2cc([N+](=O)[O-])ccc2N1c1ccc(I)cc1F in this assay.
(A) inactive

(Q) Answer briefly: the call reported for COc1cc(/C=C2\CCC/C(=C\c3cc(CN4CCCCC4)c(O)c(OC)c3)C2=O)cc(CN2CCCCC2)c1O in this assay.
(A) inactive

(Q) Answer briefly: the call reported for Nc1ccccc1-c1ccc(-c2ccc(Cl)cc2)c2c1[nH]c1ccccc12 in this assay.
(A) inactive

(Q) Answer briefly: the call reported for CN1C(=O)N(C)C2Nn3c(s/c(=C\c4ccc(Cl)cc4Cl)c3=O)=NC21 (centres undefined) in this assay.
(A) inactive

(Q) Answer briefly: the call reported for C#CCn1cc(C=C2C(=O)N(C)C(=O)N(C)C2=O)c2cc(Cl)ccc21 in this assay.
(A) inactive

---

- Tested on: BT-549 breast
- assay: NCI-60 one-dose screen, 48 h (100 = growth as untreated, 0 = no growth, -100 = all killed)
- run.parameters: 10 µM unless noted
This is part of a sample that, as a whole, favours compounds with a hit. Of some 83,000 tested, about 20% had one in any assay.
measured.endpoint: growth (%)
Respond with the bare value in %.

1. COc1cccc(C(=O)Cn2cc(/C=C(\C#N)S(=O)(=O)c3ccccc3)c3ccccc32)c1 ... 103
2. O=C(Nc1ncc(Cc2cccc(C(F)(F)F)c2)s1)C1COc2ccccc2O1 (stereo not given) ... 90.7

// field: growth; key: COc1ccc(/C=C2\NC(=O)NC2=O)cc1O ; value = 94.1

// field: growth; key: O=C1Nc2ccccc2/C1=C/c1ccc[nH]1 ; value = 57.8

// field: growth; key: CCOC(=O)C(CC(=O)O)=C(C(=O)OCC)C(=O)OCC ; value = 122

// field: growth; key: Cn1nc(C(F)(F)F)c(-c2ccc(Cl)c(C(F)(F)F)c2)c1-c1ccc(OCc2ccc(Cl)cc2)cc1O ; value = 39.8

// field: growth; key: Nc1nc(-c2cnccn2)nn1-c1nc2ccccc2s1 ; value = 104

---

- Tested on: NCI-H322M lung
- assay: NCI-60 one-dose screen, 48 h (100 = growth as untreated, 0 = no growth, -100 = all killed)
- run.parameters: 10 µM unless noted
- Protocol: Growth inhibition of the NCI-H322M human Non-Small Cell Lung tumor cell line is measured as a screen for anti-cancer activity. Cells are grown in 96 well plates and exposed to the test compound for 48 hours. Compounds are tested at a single concentration, which is 10^-5 M for most compounds. The reported endpoint is percent growth (GI% or GIPRCNT), where numbers from 0 - 100% represent growth inhibition, and numbers from -100% - 0 represent cell death. […]
About 83,000 compounds went through this panel and 20% of them were active in at least one assay; those are over-represented in the sample as a whole.
Output true for growth not less than 70%; output false otherwise.

1. O=c1oc2ccc(I)cc2c(=O)n1-c1ccc(F)cc1F ... false
2. Cc1cc(Br)c(N)c(Br)c1 ... true
3. COc1ccc(-n2c(C(O)c3ccccc3)nn(CN3CCOCC3)c2=S)cc1 (stereo unspecified) ... true
4. Cc1ccc(S(=O)c2ccc([N+](=O)[O-])c3nonc23)cc1 (stereo unspecified) ... true

Turning now to a further record.
(Q) Does Cc1nc2ccccc2c(/C=C/c2ccccc2)c1C(=O)/C=C/c1ccc(Cl)cc1 have a reported growth of at least 70%?
(A) false

This collection of values is drawn from PubChem BioAssay (NCI).
